Biological target: integrin α5β1 on intact cells (human, UniProt P08648 42-1049; P05556 21-798)
Sequence (P08648 42-1049, chain 1 of 2): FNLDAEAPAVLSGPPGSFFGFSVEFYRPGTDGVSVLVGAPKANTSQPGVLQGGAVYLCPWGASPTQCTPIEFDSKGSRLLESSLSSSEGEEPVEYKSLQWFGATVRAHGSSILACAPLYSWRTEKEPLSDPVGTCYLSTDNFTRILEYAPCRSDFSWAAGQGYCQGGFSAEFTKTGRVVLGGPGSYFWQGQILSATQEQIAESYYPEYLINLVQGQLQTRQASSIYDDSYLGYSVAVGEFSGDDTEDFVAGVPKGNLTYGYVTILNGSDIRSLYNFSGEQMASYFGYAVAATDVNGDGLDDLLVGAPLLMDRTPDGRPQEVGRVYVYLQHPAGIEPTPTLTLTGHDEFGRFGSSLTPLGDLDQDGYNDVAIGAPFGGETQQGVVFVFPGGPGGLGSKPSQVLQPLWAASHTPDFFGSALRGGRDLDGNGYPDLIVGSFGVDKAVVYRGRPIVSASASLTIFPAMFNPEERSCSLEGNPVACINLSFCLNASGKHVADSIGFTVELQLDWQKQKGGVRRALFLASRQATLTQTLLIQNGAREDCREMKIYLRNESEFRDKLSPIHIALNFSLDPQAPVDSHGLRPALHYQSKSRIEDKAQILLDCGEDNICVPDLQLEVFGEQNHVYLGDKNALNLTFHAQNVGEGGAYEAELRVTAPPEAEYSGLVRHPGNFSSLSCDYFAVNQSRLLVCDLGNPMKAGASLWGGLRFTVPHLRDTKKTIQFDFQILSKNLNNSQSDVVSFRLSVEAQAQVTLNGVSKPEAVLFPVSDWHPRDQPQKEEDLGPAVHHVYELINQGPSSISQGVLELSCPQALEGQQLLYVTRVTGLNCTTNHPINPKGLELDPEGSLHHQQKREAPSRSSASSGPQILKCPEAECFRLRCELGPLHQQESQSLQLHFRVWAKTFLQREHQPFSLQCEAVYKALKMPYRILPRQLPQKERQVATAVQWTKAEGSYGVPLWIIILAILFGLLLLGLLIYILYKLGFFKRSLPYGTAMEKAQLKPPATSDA
Sequence (P05556 21-798, chain 2 of 2): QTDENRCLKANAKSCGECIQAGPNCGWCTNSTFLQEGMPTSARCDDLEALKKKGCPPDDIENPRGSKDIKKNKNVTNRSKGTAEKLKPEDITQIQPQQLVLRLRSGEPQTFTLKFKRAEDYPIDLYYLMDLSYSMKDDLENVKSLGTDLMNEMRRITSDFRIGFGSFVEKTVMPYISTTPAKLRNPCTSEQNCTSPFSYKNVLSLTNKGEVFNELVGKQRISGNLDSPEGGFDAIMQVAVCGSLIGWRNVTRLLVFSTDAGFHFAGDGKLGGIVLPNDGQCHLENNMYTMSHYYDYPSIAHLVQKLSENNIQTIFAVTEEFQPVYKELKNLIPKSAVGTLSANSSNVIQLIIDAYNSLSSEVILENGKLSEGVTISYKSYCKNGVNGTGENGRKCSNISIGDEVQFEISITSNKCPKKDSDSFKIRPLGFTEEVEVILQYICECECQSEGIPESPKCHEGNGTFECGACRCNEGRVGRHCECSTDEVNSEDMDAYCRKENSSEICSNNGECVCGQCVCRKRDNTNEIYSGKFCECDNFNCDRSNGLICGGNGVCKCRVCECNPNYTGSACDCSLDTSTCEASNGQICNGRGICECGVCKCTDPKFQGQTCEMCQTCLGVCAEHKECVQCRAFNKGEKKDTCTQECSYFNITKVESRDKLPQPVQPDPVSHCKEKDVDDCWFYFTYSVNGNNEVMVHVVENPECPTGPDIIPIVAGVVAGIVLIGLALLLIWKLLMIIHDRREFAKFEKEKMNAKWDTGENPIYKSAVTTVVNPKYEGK
Assay: FACS
Positions of bridges follow the written chain, without caps; N, C: chain ends. No end group written: not given here.
readout: Kd (µM)
One number for each entry, in µM.

Output measured Kd for this item: ACRGDGWCGK (disulfide 2-8 (inferred)) [cyclic-ACRGDGWCGK]
3.7
